- Experimental Details: yeast display, Sf9 membrane polyspecificity reagent, FACS + sequencing; frameworks hold sequencing errors
Property Name: polyreactivity (PSR sort gate)

Below, each entry is followed by its recorded polyreactivity (PSR sort gate) result.
QVQLVESVGGLVQAGGSLRLSCAASGFTFHAYAMGWYRQAPGKERELVAVITRGGSTYYADSVKRRFTISLDNAKNTVYLQMKSLKPEDTAVYYCAAVRTKDWRGPEMDYWGQGTQVTVSS high polyreactivity
QDQLVDSGGGLVQAGGNLRLSCAASGRTFPPYSMGWDRQAPGKERELVAAISGSGASTYYADSEKGRFTISRDNAKNTVYLQMNCLKPEDSAVYYCARYRGYWGRYYGVDYGYWGQGTQVTVSS high polyreactivity
QVQLVESGGGLVQAGGSLRLSCAASGSIFRVYAMGWYRRAPGKERELVATITWNGGSTYYADSVKGRFTISRDNAKNTVYLQMNSLKPEDTAVYYCAKPTSWRRVLPMDYWGQGTQVTVSS low polyreactivity
QVQLVESGGGLVQAGGSLRLSCAASGRIFGGYAMGWYRQAPGKERELVAAISGSGGRTYYADSVKGRFTISRDNAKNTVYLQMNSLKPEDTAVYYCNKGYVYGHEYWGQGTQVTVSS high polyreactivity

Prompt: Please look up its polyreactivity (PSR sort gate): QGQLVESGGGLVQAGGSLRLSCAASGGIFKAYAMGWYRQAPGQERELVAVITIGGRTTYADSVKGRFTISRDNAKNTVYLQMNSLKPEDTAVYYCAKTNYNWLSTAEHDYWGQGTQVTVSS
Completion: low polyreactivity

###

- Experimental Details: yeast display, Sf9 membrane polyspecificity reagent, FACS + sequencing; frameworks hold sequencing errors
Property Name: polyreactivity (PSR sort gate)

QVQLVESGGGLVQAGGSLRLSCAASGFTVWYYAMGWYRQAPGKVRELVASISSIGGSTYYADSVKGRFTISRENAKNTVYLQMNSLKPEDTAVYYCAARYKFLRGVVRRDYWGQGTQVTVSS high polyreactivity
QVQLVESGGGLVQAGGSLRLSCAASGFTFTRYAMGWYRQAPGKERELVAAISWSGGSTYYADSVKGRFTISRDNAKNTVYLQMNSLKPEDTAVYYCAKRGTVRQGGYGYWGQGTLVTVSS high polyreactivity
QVQLVESGGGLVQAGGSLRLSCAASGFTFRYYAMVWYRQAPGKERELVAAISYSGGSTYYADSVKGRFTISRDNAKNTVYLQMNCLKPEDTAVYYCAAYYPYSREMGYWGQGTQVTVSS high polyreactivity
QVQLVESGGGLVQAGGSLRLSCAASGRIYDDNAMGWYRQAPGKERELVAAISSGDSTKYADSVKGRFTISRDNAKNTVYLQMNSLKPDDTAVYSCAAERNHGLVGSESVGRNDYWGPGTQVTVSS low polyreactivity
QVQLVESGGGLVQAGGSLRLSCAASGRTFVYYAMGWYRQAPGKEREFVATISDGGGTYYADSVKGRFTISRDNAKNTVYLQMNSMNPEDSAVYYCNARGTPWRYGGDYWGQGTQVTVSS low polyreactivity
QVQHVESGGGLVQAGGSLRLSCAASGSIFAGYAMGWYRQAPGKEWELVAAISRRGGRKYYADSVKGRFTISRDNAKNTVYLQMNSLKPEDTAVYYCAVTTPRGPYGYDYWGQGTQVTVSS high polyreactivity
QVQLVESGGGLVQAGGSLRLSCSASGSIFGGYAMGWYRQAPGKEREFVAAISRRGASTYYADSVKGRYTISRDNAKNTVYLQMNSLKPEDTAVYYCNARAYGRIDGLSATYGYWGQGTQVTVSS high polyreactivity
QVQLVESGGGLVQAGGSLRLSCAASGSIFKYNTMGWYIQAPGKERELVATISGGGRTYYADSVKGRFTISRDNAKNTVYLQMNSLKPEDTAVYYCAARKRGTFTYDYWGQGTQVTVSS high polyreactivity

Prompt: Field request: polyreactivity (PSR sort gate) | item: QVQLVESGGGLVQAGGSLRLSCAASGRTFRLYAMGWYRQAPGKVRELGAAITRGGRTNYADSVKGRFTISRDNAKNTVYLQMNSLKPEDTALYYCAARYVERHTDYYYWGQGTQVTVSS
Completion: low polyreactivity

Prompt: Now this one: QVQLVESGGGLVQAGGSLRLSCAASGSTFTSYAMGWYRQAPGKERELVAAISKSGGSTYYADSVKGRFTISRDNAKNTVSLQMNSLKPEDSAVFYCAARYIVRSYSTSRFDYWGQGTQVTVSS
Completion: low polyreactivity

###

- Experimental Details: yeast display, Sf9 membrane polyspecificity reagent, FACS + sequencing; frameworks hold sequencing errors
Property Name: polyreactivity (PSR sort gate)

QVQLVESGGGLVQAGGSLRLSCAASGSIFYYAMGWYRQAPGKERELVAAITWRGGRTYYADSVKGRFTISRDNAKNTVYLQMNSLKPEDTAVYDFNAVAPGKYNLWGQGTQVTVSS high polyreactivity
QVQLVESGGGLVQAGGSLRLSCAASGRTIYRYAMGWYRQAPGKERELVAAISRRGGSTYYADSVKGRFTISRDNAKNTVYLHMNSLKPEDSAVYYCNAPFGDVYRTDDYWGQGTQVTVSS high polyreactivity

###

- Experimental Details: yeast display, Sf9 membrane polyspecificity reagent, FACS + sequencing; frameworks hold sequencing errors
Property Name: polyreactivity (PSR sort gate)

QVQLVESGGGLVQAGGSLRLSCAASGSTFYGYALGWYRQAPGKERELVAAITRSGGSTYYADSVKGRFTISRDNAKNTVYLQMNSLKPEDTEVYYCNKYGYKGGVGYDYWGQGTQVTVSS high polyreactivity
QVQLVESGGGLVQAGGSLRLSCAASGSTSTTYTMGWYRQAPGKERELVAAISYSGGSTYYADSVKGRFTISRDNAKHTVYLQMNSLKPEDTAVYYCAAQSFVGWREYESWGQGTQVTVSS high polyreactivity

###

- Experimental Details: yeast display, Sf9 membrane polyspecificity reagent, FACS + sequencing; frameworks hold sequencing errors
Property Name: polyreactivity (PSR sort gate)

QVQLVESGGGLVQAGGSLRLSCAASGRIFLYYAMGWYRQAPGKERELVAAISRRGASTYYADSVKGRFTISRDNAKNTVYLQMNSLKPEDTAVYYCATVPGKSGDYWGQGTQVTVSS high polyreactivity
QVQLVESGGGLVQAGGSLRLSCSASGSTFVVYAMGWSRQAPGKERELVAAISESGSSTYYADSVKGRFTISRDNAKNTVYLQMNSLKPEDTAVYYCNALYYDWHPEYQVIFSDFYYWGQGTQVTVSS low polyreactivity
QVQLVESGGGLVQAGGSLRLSCAASGRTFWNYAMGWYIQAPGKEREFVAVIRFSDGSTYYADSVKGRFTISRDNAKNTVYLQMNSLKPEDTAVYYCAAKGPRRWGSGFDYWGQGTQLTVSS low polyreactivity
QVQLVESGGGLAQAGGSLRLSCAASGNIFRINGMGWYRQAPGKERELVASITRSGSTYYADSVKGRFTISRDNAKNTVYLQMNSLKPEDTAVYFCAADSRRYGVRFDYWGQGTQVTVSS low polyreactivity
QVQLVESGGGVVQAGGSLRLSCAASGFTFVWHAMGWYRQAPGKEREFVAAISRRGGTTNYADSVKGRFTISRDNAKNTVYLQMNSLKPEDTAVYYCNIEPRYRSSGGMDYWGQGTQVTASS high polyreactivity

Prompt: Recorded polyreactivity (PSR sort gate) for QVQLVESGGGLVQAGGSHRLSCAASGRIFEDYAMGWYRQAPGKERELVARISSGDSTNYADSVNGRFTLSRDNAKNTVYLQMNSLKPEDTAVYYCAAEGGVQEFDYWGQGTQVTVSS , please?
Completion: low polyreactivity

Prompt: Try this sequence too: QDQLVESGGGLVQAGGRLRLSCAASGLIFENYAMGWYRQSPGKERDLVAAITTSGGSTYYADSVKGRFTISRDNAKNTVYLQMNSLKPEDTAVYDCAAVGVRSRYYGYDYWGQGTLVTVSS
Completion: high polyreactivity

Prompt: Cool, now QVQLVESGGGLVQAGGSLRLSCAASGRTLPEYVMGWYRQAPGKERELVAAITTAGSTNYADSVKGRFTISRDNAKNTVYLQMNSLKPEDTAVYYCNAYPASRGPGNPLDDYWGQGTQVTVSS
Completion: low polyreactivity

###

- Experimental Details: yeast display, Sf9 membrane polyspecificity reagent, FACS + sequencing; frameworks hold sequencing errors
Property Name: polyreactivity (PSR sort gate)

QVQLVESGGGLVQAGGSLRLSCAASGRIFKVYAMGWYIQAPGKERELVAVISRGGSTYYADSVKGRFTISRDNAKNTVYLQMNSLKPEDTAVYYCAARLTYTGGQGAYDYWGQGTQVTVSS high polyreactivity
QVQLVESGGGLVQAGGILRLSCAASGFIFRDYAMGWYRQAPGKERELVAAISFTDGTTYYADSVKGRFTISRDNAKNTVYLQMNSLKPEDTAVYYCAAGYTGYTYTELDYWGQGTQVTVSS low polyreactivity
QVQLVESGGGLVQAGGSLRLSCAASGFTFYRYVMGWYRKAPGKETELDAAISRRGGSTYYADSVKGRFTISRDNAKNTVYLQMNSLKPEDTAVYYCAADVISRYYVQYIGYYELHYDYWGQGTQVTVSS high polyreactivity
QVQLVESWGGLVQAGGSLHLSCAASGSTFQEYAMGWYRQAPGKERELVASIRWSGGRTYYADSVKGRFTISRDNAKNTVYLQMNSLKPEDTAFYYCAAGQWWYQVRFDYWGQGTQVTVSS low polyreactivity
QVQLVESGGGLVQAGGSLRLSCAASGRNFCVYAMGWYRHDHGKERELVAAISYDDGDTFYADSVKGRFTISRDNAKNTVYLQMNSLKPDDTAVYYCDAEGYSYIQSDLDYCGQGTQVTVSS high polyreactivity
QVQLVESGGGLVQAGGSLRLSCAASGLTFKVNPMGGYRQAPGKERELVPAISSGDRTYYADSVKGRFTISRDNAKNTVDLQMNSLKPEDTAVYYCNARGHNRYGTLLGFGRVPGYDYWGQGTQVTVSS low polyreactivity
QVQLVESGGGLVQAGGSLRLSCAASGLTLYYNAMGWYRQAPGKERELVAAMSGSGGNTYYADSVKGRFTISRDNAKNTVYLQMNSLKPEDTAVYYCNAYTHSRNPERREYYWGQGTQVTVSS high polyreactivity
QLQLVESGGGLVQAGGRLRLSCAASGRTLGKYAMGWYRQAPGKEREFVAAISSSGSRTFYADSVKGRFTISRDNAKYTVSLQMNSLKPEDTAVYYCAADYYSRGYGYWGQGTQVTVSS high polyreactivity
QVQLVESGGGLVQARGSLRLSCAASGRTLTYNAMGWYRPAPGKERELVAVISSRGDTTYYADSVKGRFTISRDNAKNTVYLQRNSLKPEDTAVYFCNSALSGRRSYYYWGQGTQVTVSS low polyreactivity
QVQLVESGGGLVQAGGSLRLSFAASGRIFGENAMGWYRQAPGKEREFVAVISISDASTYYADSVKGRFTLSRDNAKNTVYLQMNSLKPEDTAVYYWAADLTDFLYVASDYWGQGTQVTVSS low polyreactivity

Prompt: State the recorded polyreactivity (PSR sort gate) for this entry: QVQLVESGGGLVQAGGSLRLTCAASGSIFYTNAMGWYRQAPGKERELVAAIRWSGGRTYYADSVKGRFTISRDNAKNTVYLQMNSLKPEDTAVYYCTVVVRYPSAYAYWGQGTQVTLSS
Completion: high polyreactivity
